Molecular target: T1, IL23R_huFC (human, UniProt Q5VWK5 24-353)
T1 sequence (looked up): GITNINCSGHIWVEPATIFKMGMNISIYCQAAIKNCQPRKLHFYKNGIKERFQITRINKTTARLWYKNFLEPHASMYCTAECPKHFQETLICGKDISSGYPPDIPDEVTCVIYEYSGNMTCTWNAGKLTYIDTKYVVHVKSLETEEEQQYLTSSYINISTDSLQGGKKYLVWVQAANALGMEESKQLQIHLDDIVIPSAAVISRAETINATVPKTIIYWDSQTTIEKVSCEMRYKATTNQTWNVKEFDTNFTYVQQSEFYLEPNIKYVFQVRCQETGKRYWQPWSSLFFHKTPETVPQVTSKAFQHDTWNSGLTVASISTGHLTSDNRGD
Experiment: human ELISA vs IL-23
*1 amine or outer side, *2 acyl side, *3 side chain or, on linkers, in order; H or OH if unused. Bridges are numbered along the chain shown (N, C = ends). Primed or numbered codes have the meaning given here. [ ]: non-standard residue; d: D form. Phe(4-(2-acetylaminoethoxy)) = 4-(2-acetamidoethoxy)-phenylalanine, CC(=O)NCCOc1ccc(C[C@H](N[*:1])C(=O)[*:2])cc1; Phe(4-OMe)(3) = O-methyl-L-tyrosine (4-methoxy-L-phenylalanine), COc1ccc(C[C@H](N[*:1])C(=O)[*:2])cc1; Phe(4-OMe)(5) = O-methyl-L-tyrosine (4-methoxy-Phe), COc1ccc(C[C@H](N[*:1])C(=O)[*:2])cc1; Phe(4-OMe)(4) = O-methyl-L-tyrosine, COc1ccc(C[C@H](N[*:1])C(=O)[*:2])cc1; 2Nal = N[C@@H](Cc1ccc2ccccc2c1)C(=O)O; AEF = NCCOc1ccc(C[C@H](N)C(=O)O)cc1; αMeL = CC(C)C[C@](C)(N)C(=O)O; αMeK = C[C@](N)(CCCCN)C(=O)O; αMeV = CC(C)[C@](C)(N)C(=O)O; Abu = CC[C@H](N)C(=O)O
experimentalReadout: IC50

IC50 recorded for this binder, XQTWQCFXKXNG (as bracketed in name; thioether cyclo) [Ac-Cyclo-[[Abu]-QTWQC]-[Phe[4-(2-aminoethoxy)]]-[2-Nal]-[α-MeLys]-[Orn]-NG-NH2] , is < 10 nM

IC50 recorded for this binder, Ac-[2Nal][Abu]QTWQC[AEF][2Nal][αMeK]ENN-NH2 (thioether 2-7) [Ac-[2-Nal]-Cyclo-[[Abu]-QTWQC]-[Phe[4-(2-aminoethoxy)]]-[2-Nal]-[α-MeLys]-ENN-NH2] , is < 10 nM

IC50 recorded for this binder, Ac-[Abu]QTWQC[Phe(4-OMe)(3)][2Nal][αMeK]K(Ac)NAE-NH2 (thioether 1-6) [Ac-Cyclo-[[Abu]-QTWQC]-[Phe(4-OMe)]-[2-Nal][α-MeLys]-[Lys(Ac)]-NAE-NH2] , is < 10 nM

IC50 recorded for this binder, Ac-[Abu]QTWQC[Phe(4-(2-acetylaminoethoxy))][2Nal][αMeK](Ac)ENQ-NH2 (thioether 1-6) [Ac-Cyclo-[[Abu]-QTWQC]-[Phe[4-(2-(acetyl-aminoethoxy)]]-[2-Nal]-[α-MeLys(Ac)]-ENQ-NH2] , is < 10 nM

IC50 recorded for this binder, Ac-[dK][Abu]QTWQC[Phe(4-OMe)(4)][2Nal][αMeL]ENG-NH2 (thioether 2-7) [Ac-(D)Lys-[Cyclo-[[Abu]-QTWQC]]-[Phe(4-OMe)]-[2-Nal]-[α-MeLeu]-ENG-NH2] , is < 10 nM

IC50 recorded for this binder, Ac-[Abu]QTWQC[Phe(4-(2-acetylaminoethoxy))][2Nal][αMeK](Ac)ENN-NH2 (thioether 1-6) [Ac-Cyclo-[[Abu]-QTWQC]-[Phe[4-(2-(acetyl-aminoethoxy)]]-[2-Nal]-[α-MeLys(Ac)]]-ENN-NH2] , is < 10 nM

IC50 recorded for this binder, Ac-[Abu]QTWQC[AEF][2Nal][αMeL]ENN-NH2 (thioether 1-6) [Ac-Cyclo-[[Abu]-QTWQC]-[Phe[4-(2-aminoethoxy)]]-[2-Nal]-[α-MeLeu]-ENN-NH2] , is < 10 nM

IC50 recorded for this binder, Ac-[dE][Abu]QTWQC[AEF][2Nal][αMeK]ENN-NH2 (thioether 2-7) [Ac-(D)Glu-[Cyclo-[[Abu]-QTWQC]-[Phe[4-(2-aminoethoxy)]]-[2-Nal]-[α-MeLys]-ENN-NH2] , is < 10 nM

IC50 recorded for this binder, XQTWQCFXXKNG (as bracketed in name; thioether cyclo) [Ac-Cyclo-[[Abu]-QTWQC]-[Phe[4-(2-aminoethoxy)]]-[2-Nal]-[α-Me-Orn]-[Lys(Ac)]-NG-NH2] , is < 10 nM

IC50 recorded for this binder, Ac-[Abu]QTWQC[AEF][2Nal][αMeV]K(Ac)NG-NH2 (thioether 1-6) [Ac-Cyclo-[[Abu]-QTWQC]-[Phe[4-(2-aminoethoxy)]]-[2-Nal]-α-MeVal]-[Lys(Ac)]-NG-NH2] , is < 10 nM

IC50 recorded for this binder, Ac-[Abu]QTYQC[Phe(4-OMe)(5)][2Nal][αMeK]K(Ac)NG-NH2 (thioether 1-6) [Ac-Cyclo-[[Abu]-QTYQC]-[Phe(4-OMe)]-[2-Nal]-[α-MeLys]-[Lys(Ac)]-NG-NH2] , is ~10000 nM

IC50 recorded for this binder, Ac-[Abu]TWQC[AEF][2Nal][αMeK]ENG-NH2 (thioether 1-5) [Ac-Cyclo-[[Abu]-TWQC]-[Phe[4-(2-aminoethoxy)]]-[2-Nal]-[α-MeLys]-ENG-NH2] , is < 10 nM
